B1: ESR2 (parent)
chain: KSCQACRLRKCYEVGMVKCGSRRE

# Variants of: B1
# Assay Info: protein stability index of a GFP-peptide fusion (GPS, HEK-293T) (PSI 1-6); higher = more stable;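 note: lentivirally expressed fusions sorted by FACS into six bins by GFP to DsRed ratio, PSI derived from sequencing read proportions per bin multiplied by bin number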
# Particulars: c terminus: a fixed tail appended
Measurement Name: protein stability index

* V17S | 2.16
* V14S | 2.52
* Y12R | 1.9
* E13N | 1.93
* R22Q | 2.04
* K18T | 1.82
* V14D | 2.17
* L8A | 2.17
* K10L | 2.24
* C11K | 2.3
* Y12W | 2.24
* C19H | 1.94
* E24A | 2.44
* S2K | 2.02
* A5R | 3.08
* Y12T | 2.77
* R9V | 2.13
* C11V | 2.47
* E24S | 1.79
* C11L | 2.31
* M16F | 2.1
* R9K | 2.04
